- Tested on: Recombinant human iNOS (Homo sapiens, UniProt P35228)
- Construct: purchased Enzo Life Sciences, Inc
- Protocol details: iNOS inhibition, L-citrulline assay with fluorimetric (HPLC) detection
- Type: biochemical
- Experimental context: read-out: iNOS % inhibition
Readout name: inhibition at 1 µM (%)

Take a look at these entries with their results.
- Molecule: "Cc1ccc(S(=O)(=O)N2CCCC(Cn3cncn3)C2)cc1 (stereo not drawn)"
  inhibition at 1 µM, %: 22
- Molecule: "O=C(OC(Cc1ccccc1)Cn1ccnc1)c1ccccc1 (stereo not drawn)"
  inhibition at 1 µM, %: 100
- Molecule: "Cc1ccc(S(=O)(=O)N2CCCC(Cn3cncn3)C2)cc1[N+](=O)[O-] (stereo not drawn)"
  inhibition at 1 µM, %: 39
- Molecule: "COc1ccc(NC(=S)OC(Cc2ccccc2)Cn2ccnc2)c(OC)c1 (stereo not drawn)"
  inhibition at 1 µM, %: 7
- Molecule: "O=C(OC(Cc1ccccc1)Cn1ccnc1)c1ccc2ccccc2c1 (stereo not drawn)"
  inhibition at 1 µM, %: 0

A = O=[N+]([O-])c1cccc(S(=O)(=O)N2CCCC(Cn3cncn3)C2)c1 (stereo not drawn)
B = N#Cc1ccc(S(=O)(=O)N2CCCC(Cn3cncn3)C2)cc1 (stereo not drawn)
Prompt: Could you please tell me which of these two has the higher inhibition at 1 µM: A or B ? Provide the label of your selected option as the answer.
Completion: A

I = COc1cc(C)ccc1NC(=S)OC(Cc1ccccc1)Cn1ccnc1 (stereo not drawn)
II = CC(=O)Nc1ccc(S(=O)(=O)N2CCCC(Cn3cncn3)C2)cc1 (stereo not drawn)
Prompt: Could you please tell me which of these two has the higher inhibition at 1 µM: I or II ? Provide the label of your selected option as the answer.
Completion: I
(I: 12%, II: 0%)

* * *

- Protocol details: Chemical stability in aqueous media at 37 °C (HPLC)
- Assay type: physicochemical
- Experimental context: aqueous NaOH solution; NaOH solution pH = 9.0, 37 °C; read-out: half-life of hydrolysis in basic medium
Readout name: half-life at 0.05 mg/mL (min)
Form entry: value (min) — number only.

Entry O=C(OC(Cc1ccccc1)Cn1ccnc1)c1ccccc1 (stereo not shown) — recorded half-life at 0.05 mg/mL = 48

* * *

- Tested on: MCF-7 breast cancer cell line
- Protocol details: Cell metabolic activity (MTT assay)
- Type: cell-based
- Experimental context: Homo sapiens, MCF7; MCF-7, 24 h exposure; read-out: IC50 cell metabolic activity (MTT)
pIC50: −log10 of the molar value.
Readout name: pIC50

- Compound: "O=C(OC(Cc1ccccc1)Cn1ccnc1)c1ccccc1 (centres unmarked) [Compound 2]"
  Tested on: "MCF-7 breast cancer cell line"
  Readout name: "pIC50"
  Reported: "< 3.70"

The compound O=C(NCc1ccccc1)OC(Cc1ccccc1)Cn1ccnc1 (centres unmarked) [Compound 6] on MCF-7 breast cancer cell line: pIC50 was < 3.40

* * *

- Tested on: C. albicans ATCC 90028
- Protocol details: Antifungal broth microdilution (EUCAST), standard strain
- Type: cell-based
- Experimental context: Candida albicans, ATCC90028; C. albicans ATCC 90028; 24 h, ≥50% growth inhibition; read-out: MIC
# MIC per entry

Take a look at these entries with their results.
- Compound: "COc1ccc(NC(=S)OC(Cc2ccccc2)Cn2ccnc2)c(OC)c1 (stereo not shown)"
  MIC: "> 64 µg/mL"
- Compound: "OC(Cn1cncn1)(Cn1cncn1)c1ccc(F)cc1F [Fluconazole, reference compound]"
  MIC: "0.25 µg/mL"
- Compound: "N#Cc1ccc(S(=O)(=O)N2CCCC(Cn3cncn3)C2)c(Cl)c1 (stereo not shown)"
  MIC: "> 64 µg/mL"

Next:
Entry O=[N+]([O-])c1cccc(S(=O)(=O)N2CCCC(Cn3cncn3)C2)c1 (stereo not shown) — recorded MIC = > 64 µg/mL

* * *

# melting point per entry

Take a look at these entries with their results.
- Molecule: "N#Cc1ccc(S(=O)(=O)N2CCCC(Cn3cncn3)C2)c(Cl)c1 (stereo not drawn)"
  melting point: "81 to 82 °C"
- Molecule: "O=C(OC(Cc1ccccc1)Cn1ccnc1)c1ccccc1 (stereo not drawn)"
  melting point: "68 to 69 °C"
- Molecule: "Cc1ccc(S(=O)(=O)N2CCCC(Cn3cncn3)C2)cc1[N+](=O)[O-] (stereo not drawn)"
  melting point: "105 to 106 °C"

Entry N#Cc1ccc(S(=O)(=O)N2CCCC(Cn3cncn3)C2)cc1 (stereo not drawn) — recorded melting point = 95 to 96 °C

Entry O=C(OC(Cc1ccccc1)Cn1ccnc1)c1cccc(C(=O)c2ccccc2)c1 (stereo not drawn) — recorded melting point = 86 to 87 °C

Entry COc1cc(C)ccc1NC(=S)OC(Cc1ccccc1)Cn1ccnc1 (stereo not drawn) — recorded melting point = 120 to 121 °C

Entry O=C(OC(Cc1ccccc1)Cn1ccnc1)c1cc([N+](=O)[O-])cc([N+](=O)[O-])c1 (stereo not drawn) — recorded melting point = 144 to 145 °C

Entry O=S(=O)(c1ccccc1)N1CCCC(Cn2cncn2)C1 (stereo not drawn) — recorded melting point = 72 to 73 °C

Entry O=C(OC(Cc1ccccc1)Cn1ccnc1)c1ccc2ccccc2c1 (stereo not drawn) — recorded melting point = 71 to 72 °C

* * *

- Protocol details: Chemical stability in aqueous media at 37 °C (HPLC)
- Format: physicochemical
- Experimental context: buffer; NaOH solution pH = 9.0, 37 °C; read-out: half-life of hydrolysis in basic medium
Readout name: half-life at 0.05 mg/mL (min)
Form entry: value (min) — number only.

Entry O=C(OC(Cc1ccccc1)Cn1ccnc1)c1cc([N+](=O)[O-])cc([N+](=O)[O-])c1 (stereo not shown) — recorded half-life at 0.05 mg/mL = 39

* * *

- Tested on: aromatase (CYP19A) (Homo sapiens)
- Construct: purchased BioVision
- Protocol details: Aromatase inhibition, fluorimetric assay kit (Aromatase-CYP19A Inhibitor Screening kit, BioVision)
- Type: biochemical
- Experimental context: read-out: Aromatase % inhibition
Readout name: inhibition at 1 µM (%)

Take a look at these entries with their results.
- Compound: "COc1ccc(S(=O)(=O)N2CCCC(Cn3cncn3)C2)c(OC)c1 (stereo not shown)"
  Tested on: "aromatase (CYP19A) (Homo sapiens)"
  Quantity unit: "%"
  inhibition at 1 µM: 62
- Compound: "O=C(NCc1ccccc1)OC(Cc1ccccc1)Cn1ccnc1 (stereo not shown)"
  Tested on: "aromatase (CYP19A) (Homo sapiens)"
  Quantity unit: "%"
  inhibition at 1 µM: 72

a = O=S(=O)(c1ccccc1)N1CCCC(Cn2cncn2)C1 (stereo not shown)
b = COc1ccc(NC(=S)OC(Cc2ccccc2)Cn2ccnc2)c(OC)c1 (stereo not shown)
c = COc1cc(C)ccc1NC(=S)OC(Cc1ccccc1)Cn1ccnc1 (stereo not shown)
Prompt: List these items ordered by inhibition at 1 µM, big to small. Answer format: list of labels, ordered as asked.
Completion: c, a, b

I = Cc1ccc(S(=O)(=O)N2CCCC(Cn3cncn3)C2)cc1[N+](=O)[O-] (stereo not shown)
II = O=C(OC(Cc1ccccc1)Cn1ccnc1)c1cccc(C(=O)c2ccccc2)c1 (stereo not shown)
Prompt: Given I and given II , which shows the smaller recorded inhibition at 1 µM? Provide the label of your selected option as the answer.
Completion: I

I = O=C(OC(Cc1ccccc1)Cn1ccnc1)c1ccc2ccccc2c1 (stereo not shown)
II = O=C(OC(Cc1ccccc1)Cn1ccnc1)c1ccccc1 (stereo not shown)
III = N#Cc1ccc(S(=O)(=O)N2CCCC(Cn3cncn3)C2)cc1 (stereo not shown)
IV = Cc1ccc(S(=O)(=O)N2CCCC(Cn3cncn3)C2)cc1 (stereo not shown)
Prompt: Would you mind ranking these compounds by ascending inhibition at 1 µM? Answer format: list of labels, ordered as asked.
Completion: I, IV, III, II

* * *

- Tested on: C. albicans ATCC 90028
- Protocol details: Antifungal broth microdilution (EUCAST), standard strain
- Assay type: cell-based
- Experimental context: Candida albicans, ATCC90028; C. albicans ATCC 90028; 24 h, ≥50% growth inhibition; read-out: MIC
Readout name: MIC (µg/mL)

I = O=C(OC(Cc1ccccc1)Cn1ccnc1)c1ccccc1 (centres unmarked)
II = O=C(OC(Cc1ccccc1)Cn1ccnc1)c1ccc2ccccc2c1 (centres unmarked)
Prompt: Could you please tell me which of these two has the higher MIC: I or II ? Provide the label of your selected option as the answer.
Completion: II
(II: 64 µg/mL, I: 16 µg/mL)

* * *

- Tested on: aromatase (CYP19A) (Homo sapiens, UniProt P11511)
- Construct: purchased BioVision
- Sequence (P11511 whole entry): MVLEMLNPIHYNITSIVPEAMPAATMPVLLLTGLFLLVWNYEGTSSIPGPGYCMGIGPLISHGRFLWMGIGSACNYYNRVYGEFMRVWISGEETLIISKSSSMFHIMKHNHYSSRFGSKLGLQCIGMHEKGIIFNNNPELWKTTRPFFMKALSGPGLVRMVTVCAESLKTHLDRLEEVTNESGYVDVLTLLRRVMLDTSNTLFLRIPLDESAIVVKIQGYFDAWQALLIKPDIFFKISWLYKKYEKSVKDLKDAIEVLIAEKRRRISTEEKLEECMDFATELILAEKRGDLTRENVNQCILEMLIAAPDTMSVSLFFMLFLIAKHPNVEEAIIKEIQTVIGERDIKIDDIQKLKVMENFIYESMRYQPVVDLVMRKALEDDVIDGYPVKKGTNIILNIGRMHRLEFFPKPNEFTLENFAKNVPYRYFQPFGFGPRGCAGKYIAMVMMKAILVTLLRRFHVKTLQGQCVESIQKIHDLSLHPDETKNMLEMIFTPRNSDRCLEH
- Protocol details: Aromatase inhibition, fluorimetric assay kit (Aromatase-CYP19A Inhibitor Screening kit, BioVision)
- Format: biochemical
- Experimental context: read-out: Aromatase % inhibition
Readout name: inhibition at 1 µM (%)

- Compound: "N#Cc1ccc(S(=O)(=O)N2CCCC(Cn3cncn3)C2)c(Cl)c1 (centres unmarked) [Compound 18]"
  inhibition at 1 µM [%]: 55
- Compound: "O=C(OC(Cc1ccccc1)Cn1ccnc1)c1cc([N+](=O)[O-])cc([N+](=O)[O-])c1 (centres unmarked) [Compound 5]"
  inhibition at 1 µM [%]: 82
- Compound: "CC(=O)Nc1ccc(S(=O)(=O)N2CCCC(Cn3cncn3)C2)cc1 (centres unmarked) [Compound 20]"
  inhibition at 1 µM [%]: 61
- Compound: "O=[N+]([O-])c1cccc(S(=O)(=O)N2CCCC(Cn3cncn3)C2)c1 (centres unmarked) [Compound 16]"
  inhibition at 1 µM [%]: 63
- Compound: "N#Cc1ccc(C(c2ccc(C#N)cc2)n2cncn2)cc1 [letrozole, reference compound]"
  inhibition at 1 µM [%]: 100
